Target: T1, human OX40 on cells (CHO-K1/hu OX40) (human, UniProt P43489 29-277)
T1 construct: whole, on cells; Also used here for OX40 on the HEK293/OX40/NF-kb reporter cells and on human T cells in the functional assays; also called CHO-K1/OX40; human OX40 cells
T1 sequence (looked up): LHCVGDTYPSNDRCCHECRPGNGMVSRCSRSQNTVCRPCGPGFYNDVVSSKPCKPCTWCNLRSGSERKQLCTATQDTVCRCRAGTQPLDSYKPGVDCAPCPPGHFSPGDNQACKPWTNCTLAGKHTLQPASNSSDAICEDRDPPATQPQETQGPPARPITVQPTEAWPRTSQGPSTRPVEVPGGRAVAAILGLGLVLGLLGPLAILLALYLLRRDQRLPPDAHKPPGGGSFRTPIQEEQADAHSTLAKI
Experiment: FACS, blocking of biotin-human OX40L on CHO-K1/hu OX40 cells
Sorting guide: entries reporting IC50 beneath 70 nM go in the yes (1) pile, the rest go in the no (0) pile.

# example entries with known answers
| binder | assigned-label |
| --- | --- |
| PR002068 (antibody, human IgG1, V domains shown, no light chain; also called anti-OX40 HCAb antibody) VH: EVQLLESGGGLVQPGGSLRLSCAASGFSFSSYAMTWVRQAPGKGLEWVSAISGGGGSIFYADSVRGRFTISRDNSKNTLYLQMNSLRAEDTAVYYCANGMTGSTDVDYWGQGTQVTVSS | yes (1) |
| PR002056 (antibody, human IgG1, V domains shown, no light chain; also called anti-OX40 HCAb antibody) VH: EVQLLESGGGLVQPGGSLRLSCAASGFTFSSYAMSWVRQAPGKGLEWVSAISGGGGSIFYADSVRGRFTISRDNSKNTLYLQMNSLRAEDTAVYYCANGMTGTTDVDYWGQGTLVTVSS | yes (1) |
| PR002058 (antibody, human IgG1, V domains shown, no light chain; also called anti-OX40 HCAb antibody) VH: EVQLLESGGGLVQPGGSLRLSCAASGFTFSSYAMSWVRQAPGKGLEWVSAISGGSGSTFYADSVRGRFTISRDNSKNTLYLQMNSLRAEDTAVYYCADGVTGTDFDFWGQGTLVTVSS | no (0) |
| PR002059 (antibody, human IgG1, V domains shown, no light chain; also called anti-OX40 HCAb antibody) VH: EVQLLESGGGLVQPGGSLRLSCVVSGLTFSSYAMSWVRQAPGKGREWVSAISGRGGSTFYADSVRGRFTISRDNSKNTLYLQMNSLRAEDTAVYYCANGMTGSTDVDYWGQGTLVTVSS | yes (1) |
| PR002066 (antibody, human IgG1, V domains shown, no light chain; also called anti-OX40 HCAb antibody) VH: EVQLLESGGGLVQPGGSLRLSCIASGFTFSSYAMSWVRQAPGKGLEWVSAISGRGGSTFYADSVRGRFTISRDNSKNTLYLQMNSLRAEDTAVYYCANGMTGTTDVDYWGQGTQVTVSS | yes (1) |

Hello, is IC50 of the following binder strictly smaller than 70 nM? PR002065 (antibody, human IgG1, V domains shown, no light chain; also called anti-OX40 HCAb antibody) VH: EVQLVESGGGLVQPGGSLRLSCAASGFTFSSYAMSWVRQAPGKGLEWVSAISGRGDITFYADSVRGRFTISRDNSKNTLYLQMNSLRAEDTALYYCANGMTGSTDVDFWGQGTLVTVSS yes (1)

Also check PR002073 (antibody, human IgG1, V domains shown, no light chain; also called anti-OX40 HCAb antibody) VH: EVQLVESGGGLVQPGGSLRLSCAASGFTFSSYAMSWVRQAPGKGLEWVSAISGGSGSTFYADSVRGRFTISRDNSKNTLYLQMNSLRAEDTAVYYCADGVTGTDFDFWGQGTLVTVSS no (0)

Also check PR002077 (antibody, human IgG1, V domains shown, no light chain; also called anti-OX40 HCAb antibody) VH: EVQLLESGGGLVQPGGSLRLSCAASGFTFSSYAMSWVRQAPGKGLEWVSAISGRGNITFYADSVRGRFTISRDNSKNTLYLQMNSLRAEDTAVYYCANGITGTTDVDYWGQGTLVTVSS yes (1)
